test: soluble on expression in E. coli; label from the status in PepcDB or PDB records
experimental.readout: soluble on expression in E. coli

• MAHHHHHHMGRSFKVFLSNYVYRYGAAVWELRVCIERCAFPDYYAASPHDCAASSHYHAAYPPRSCSECGNHLSDPTELVSTSFRGRTGPAWLFSKVINVCEGQYEDRMMTTGQHTIVDIYCNNCRNNVGWKYEDSSEESQKYKKGKYILEKALLSFLVIDQHGKEHEFELKSSDCDF = not soluble
• MSLKGDDIEEGKELVATHIAEGLYHDGKFVGYVKRAHDVDVNLNAHTMFENLVVKASGVLSAIQMLRHSKIDPAEIDYVIECSEEACGDINQRGGGNFAKSIAEIAGLQNATGSDTRGFCAAPTHALIQAAALVKAGIHKNVMVVAGGASAKLGMNAKDHVKKGLPVLEDVVGGFAVLVSENDGVNPVIRTDLTGKHTVGTGSSPQAVMTALITSGLDRANLKITDVDVYSVEMQNPDITKPAGAGDVPEANYKMIGALAVKRGDLEKKELKDFVSNKGLPGWAPTQGHIPSGAPYIGFLIDDLTTGNRNRAMIVGKGSLFLGRMTNLFDGVSFIAERNTGVTEETSGISKDEIKKIIAESMKKLALDMLEEGHHHHHH = not soluble
• MGSDKIHHHHHHMRAFEKIPAFQQWQKVEAIHRGWSTDLKFKVTKNQETFLLRIFQQEELLAKQQEYQFIKKVAALGFPSSKPFLCAPIPESEQGYMLLTYLEGEDLSDVLPALSPKRQLNLGVEAGRYLNKIHKLLLPERISQREIAQNLYEKKQSQLNKYKESQFCMPYQQPIISYLEKQLPLLQQRPVVYQHGDFHVGNFIYLPTRQVGVIDFNRWDFGDPYEEFYKLQFFSRNVSPLFAYGQLQGYFAGKVPTLFWQFQKLYTFHAGLYSLVWALSFGEKEIRTMEQQYQQLLEDYNCGELLVPKWFSTIQRKGLRF = not soluble
• MGSDKIHHHHHHMDCFYDYHKSLSPDEYVWDYEEFLYYGSDKFIKDVFVDGGVDIALSQPAYLQFFFREPFGNTNEFGTMALKYPYRFIIGTRWDPREGEEGKRQLEEDVRKYRVKPWQMRHVKLYTAEWKEVNGGISRGWRLDSPQAFEFLEFNRELGIDIQVPHKGPTVWPLSKDAFDVHDVDTAASSFPELRFVVTHVGLPRIDDFSWIGVQDKNVYAGLAVATAFIRKRPKYFAEIMAELLFWLGPDRIIFGSDYAIWHPKWIIEDFIKFELPRDLESEYGVELTLENKKKILGENAARLWGIDVEEAKKAVREDQIASRYGAKPRVFKVEG = not soluble
• MAVAYSIGIDSGSTATKGILLADGVITRRFLVPTPFRPATAITEAWETLREGLETTPFLTLTGYGRQLVDFADKQVTEISCHGLGARFLAPATRAVIDIGGQDSKVIQLDDDGNLCDFLMNDKCAAGTGRFLEVISRTLGTSVEQLDSITENVTPHAITSMCTVFAESEAISLRSAGVAPEAILAGVINAMARRSANFIARLSCEAPILFTGGVSHCQKFARMLESHLRMPVNTHPDAQFAGAIGAAVIGQRVRTRR = soluble
• HYTSPTVIQAIYNAVEQMDFTPGTVLEPSMGIGNFFGMLPEKLAAAKLYGVELDDLTGRIARQLYQKADITVDGFERTDHPDDFFDLAVGNVPFGSYQVHDKRYDRQNLMIHDYFITKTLDKVRPGGIVAFITTKGTMDKKNSKAREALAQKADLLGAVRLPSNAFKANAGTEVTTDILFFQKRDRIPEKLPEWVEVGQTEDGIPLNRYFLDHPEMVLGTM = not soluble
• MGHHHHHHSHKRVVLKLSGEALAGEKGFGINPVIIKSVAEQVAEVAKMDCEIAVIVGGGNIWRGKTGSDLGMDRGTADYMGMLATVMNALALQDSLEQLDCDTRVLTSIEMKQVAEPYIRRRAIRHLEKKRVVIFAAGIGNPYFSTDTTAALRAAEVEADVILMGKNNVDGVYSADPKVNKDAVKYEHLTHIQMLQEGLQVMDSTASSFCMDNNIPLTVFS = not soluble
• MSLITLYHCHGARSFRPLWMLEEMGLDYELKMLPFPPRVFAKEYLAINPLGTIPFMIDGDTKMTESSGICQYLGTRHGPTPLVVGVDDPAYGAYLNWMFFSDATLTFPQTLVLRYGTLEPNERRQPQVVEDYAKWFLGRLRAVEVAAGQGDYLCAGRFTAADVVNGYALRLASNLGLAKDFGPNVTAYWARLQQRDGYQRALEAETRAGEAQQVPKRAEGHHHHHH = soluble
• MTAPSLDNWEKRKRFVELPRKRQMAFIDTGGPGPVLLMLHGFSDTSRSFSIIEPYFQEYRLIAPDLPGHGASSVGHGFHVADFAETIDRFLTLMGVSRFFVLGHSMGAMTAIELAARRSSSVRGLALISGTLEPDFGTESKLARDILALRDPIKPAGGFLHDWYSCSRPVNEEFLFRMKRDAANMAATTWHGVLKAFAETDLHYSASKINVPVLCLAGSEDPLFDDSHRQQLFEAFPLAQTVTMPGHGHNPHWENPQGVSTLVTEFFAEVMTDASPVRVETAADKR = not soluble
• MALTDRLLDAWYKGHPALTLLRPLESLYRRVVDGKRAKFLAGEGDIYRAPVPVIVVGNITIGGTGKTPLILWMIEHCQRKGLRVGVVSRGYGAKPPSLPWRVQPDQSASEAGDEPLLIVQRSGVPLMIDPDRSRAVQALLAAEPLDLILSDDGLQHYRLARDLELVLIDAARGLGNRRCLPAGPLREPVERLSSVDALLYNGATADRDDGYAFTLKPSALINLRSGERQPVSYFPAGQALHAVAGIGNPQRFFNTLEGLHWRPVTHAFADHALYSVQALTFTPALPLVMTEKDAVKCRAFAADDWWYLAVDAVPSDAFVGWFDEQLLRLSPLEHHHHHH = not soluble

Values compiled from the DeepSol protein solubility set.
